8OG:A repair function score listing for selected variants.
B1: library; numbered along this chain (parent)
chain: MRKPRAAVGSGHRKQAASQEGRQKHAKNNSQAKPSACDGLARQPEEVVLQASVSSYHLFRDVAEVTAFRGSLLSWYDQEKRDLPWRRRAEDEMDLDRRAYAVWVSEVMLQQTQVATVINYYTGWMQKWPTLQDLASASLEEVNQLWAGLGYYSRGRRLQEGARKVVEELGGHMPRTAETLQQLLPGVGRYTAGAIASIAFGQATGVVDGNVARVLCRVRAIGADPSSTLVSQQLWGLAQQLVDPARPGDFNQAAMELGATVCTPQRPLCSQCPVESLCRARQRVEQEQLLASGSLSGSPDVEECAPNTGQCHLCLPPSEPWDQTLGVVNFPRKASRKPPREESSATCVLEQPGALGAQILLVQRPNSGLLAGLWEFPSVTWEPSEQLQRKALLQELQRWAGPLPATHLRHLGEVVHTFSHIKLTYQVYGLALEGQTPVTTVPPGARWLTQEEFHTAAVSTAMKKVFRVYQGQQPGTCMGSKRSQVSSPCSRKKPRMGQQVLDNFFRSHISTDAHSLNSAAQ

Variants of: B1
Experiment: 8OG:A repair function score (normalized; synonymous = 0, nonsense = -1) (normalized log-likelihood score); higher = more repair activity (WT-like);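 also: cells sorted at 72 h after reporter transfection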
Conditions: with 8OG:A DNA repair reporter (GFP) in HEK-293 MUTYH KO cells

Annotate the variant D502G with its measured 8OG:A repair function score.
-0.00456

Annotate the variant L408G with its measured 8OG:A repair function score.
-0.81

Annotate the variant E90F with its measured 8OG:A repair function score.
-0.0713

Annotate the variant V362C with its measured 8OG:A repair function score.
-0.232

Annotate the variant K492N with its measured 8OG:A repair function score.
-0.00159
